Attribute: soluble fraction (log2)
# TEST_SUMMARY: soluble fraction after stress (log2 fold change); higher = more stays soluble; pooled small domains, quantitative proteomics;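 note: 20 min heating vs room temperature control held 20 min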
# TEST_SETTINGS: stress: 75 degC

Example entries begin here.
Quick note, soluble fraction (log2) for HMSVETSDLLPLIEQVLSLNPDKVKEYQNGKKGLLGFFMGQIKQTAGVAIDVGTLKPLLEDALHKDL landed at -0.861

Quick note, soluble fraction (log2) for HMDNPYEVFIPNSYIGQRLDQTLASLFPQFSRSRLQNWLASGNLLVNGKIVKPKTKILGGEQINILDPYN landed at -0.608

Quick note, soluble fraction (log2) for HMVAGGTVSRKLSIETGLPKRKSLIGSWLDQNSVWHNIISVRHRNGYGDGVNYGFYLRSLLTSEGNLAW landed at -0.0583

Quick note, soluble fraction (log2) for HMQATETFSLIVPMSSAGNRLDVVLSELLPNFSRKKIQDAIKNGDATLNGKAPKIRDKVYGGENITITLIL landed at -2.55

Switching to the query record.
Quick note, soluble fraction (log2) for HMDGVYLKSLKQTEQHIHWSGYAQSNAWVSTLMRNLDASPWFESPLLIEIKAATINNSRSNEFDLNVRL landed at 0.0974

* * *

# TEST_SUMMARY: soluble fraction after stress (log2 fold change); higher = more stays soluble; pooled small domains, quantitative proteomics
# TEST_SETTINGS: stress: 75 degC
PROPERTY_LABEL: soluble fraction (log2)
Just the number.

Quick note, soluble fraction (log2) for HMGFAPEAAREEVAQLIGQRGRAVTVLRPSGQVEIAGRRFEATVEVGAVDAGDTIVVRGQTAFALLVEKAD landed at -0.292

Quick note, soluble fraction (log2) for HMDEDTWKLYKRAYKKYYARYMKGNMSEAAFKAWGEQAAADRDAAIEQLRATTDAALSASIIQQLKEKLNR landed at -0.995

Quick note, soluble fraction (log2) for HMNQTTYTVLYSGMDPADTGKVLTALNEMGVDARTQGEDTVLVPADRADEIRLELAAQGYPTS landed at 0.06

Quick note, soluble fraction (log2) for HMGTVFTDIMTDIASGKFPNVFPDSLEAQIQKNVTMAPDKLSATLQYGDKSVILPTTKGKEAAEAAVKAA landed at 0.000803

---
Quick note, soluble fraction (log2) for HMRNTPQRRHAILALLSEQGEVSVDALAKRFSTSEVTIRKDLAAMESHGLLLRRYGGAVPMPQELI landed at -1.63

Quick note, soluble fraction (log2) for HMNPKTELMVYLKKRDEWVASQILSDVLQVSTRTIRKFVKEINMDYQTENVILSSSKGYKLNQNLLSSL landed at -1.19

Quick note, soluble fraction (log2) for HMKEAITVIGGKNNITFDASAQAEIGIYSMDGVQIQKKTISDNERIDLPAGMYVVTVKTGQANVSKVVVV landed at -0.553

Quick note, soluble fraction (log2) for HMAIEMSTITKRVTSTGEIRYRALLQIRREDVNYTESRTFSKKSLAEAWLKKREVELEANPELLHQ landed at -3.44

* * *

# TEST_SUMMARY: soluble fraction after stress (log2 fold change); higher = more stays soluble; pooled small domains, quantitative proteomics
# TEST_SETTINGS: stress: 75 degC
PROPERTY_LABEL: soluble fraction (log2)
Just the number.

Quick note, soluble fraction (log2) for HMRTYYEILGVSKNASLHEIQKAYRELALKYHPKNNSDPTAEEKFTQINEAYTHLSDAARRRSYDDL landed at 0.554

Quick note, soluble fraction (log2) for HMAPLEPLTDRETEMLVRLANGASNKVMARESFVSENTIKFHLKNIYAKLGVTSRLQAIAAARNQGLI landed at -1.31

---
Quick note, soluble fraction (log2) for HMTRNEFMTALRKRLSHLPAEEQDAALKYYEEYFDEAESEEEAARQLGSPDAIADRILADYGAG landed at 0.327

Quick note, soluble fraction (log2) for HMNRIEMTEPIIIKDLSRETGIPWVAIQKRLAQDGIMANINTTIEAEKAQLIAVDYGIELAVV landed at -0.427

Quick note, soluble fraction (log2) for HMNRIARRELMEQLFADNKITTQEQLQQLLRAEGVEVTQATISRDMRILNIVKVSDQNGNTYYKQMK landed at -0.171

Quick note, soluble fraction (log2) for HMFPELSEEEQIIVSLLQKQPDGLQINTLVVESNIPVNRMSGILFELEMKGIIRMAAGGVYRLL landed at -1.35

Quick note, soluble fraction (log2) for HMPKHDWDAFAGAIARRVHDHGMPVSQGELVRDMMDWFAGRKDFPPPDERTVRRKVSAIWRELNG landed at -1.38

Quick note, soluble fraction (log2) for HMRNISLSLRWHSGEWTADRLKSEVLALPGAMDMTVFEPQSQAYLRVEQGFDTKLLPAGIDVH landed at -1.31
